Reported values of inhibition at 10 µM for individual entries
- ASSAY_SYSTEM: nitrogen monoxide synthase (NO synthase) (Rattus norvegicus, UniProt P29476)
- Construct: the supernatant was then decanted off and frozen in portions; from tissue; host or cells: rat cerebellum (homogenate, 20,000 g supernatant)
- ASSAY_COMMENT: HTS-NOS assay (nitrogen monoxide synthase assay)
- Assay type: biochemical
- TEST_SETTINGS: compound at 10 μM; enzyme preparation from rat cerebella; [3H]-arginine substrate
MEASUREMENT_NAME: inhibition at 10 µM (%)

INSERT INTO assay_data (molecule, number) VALUES
  ('CCOC(=O)c1c[nH]nc1NC1CC(C)(c2ccc3c(c2)OCO3)OC1=O (stereo not drawn) [Example 33]', 45),
  ('Cc1cc(C)nc(NC2CC(C)(c3ccc(Oc4ccccc4)cc3)OC2=O)c1 (stereo not drawn) [Example 21]', 91),
  ('Cc1cc(C)nc(NC2CC(C)(c3ccc(C4CCCCC4)cc3)OC2=O)c1 (stereo not drawn) [Example 4]', 45),
  ('COc1ccccc1C1(C)CC(Nc2ncc(Cl)cc2Cl)C(=O)O1 (stereo not drawn) [Example 70]', 51),
  ('CC(C)(C)c1ccc(C2(C)CC(Nc3ncccc3[N+](=O)[O-])C(=O)O2)cc1 (stereo not drawn) [Example 18]', 40),
  ('Cc1ccc(C2(C)CC(Nc3ccc4cccc(O)c4n3)C(=O)O2)c(C)c1 (stereo not drawn) [Example 1]', 40),
  ('Cc1cc(C)nc(NC2CC(C)(c3ccc(C(C)(C)C)cc3)OC2=O)c1 (stereo not drawn) [Example 22]', 44),
  ('Cc1cc(C)nc(NC2CC(C)(c3ccc(I)cc3)OC2=O)c1 (stereo not drawn) [Example 57]', 72),
  ('Cc1ccnc(NC2CC(C)(c3cc4ccccc4s3)OC2=O)c1 (stereo not drawn) [Example 30]', 41);
